Protocol Description: Displacement of [3H]flumazenil from GABAA receptor in rat cortical membrane
Assay type: cell membranes
pKi: −log10 of the molar value.
Label rule not met if pKi falls below 9; label rule met in every other case.

Solved cases below.
>  <Molecule Smiles>
CCCCC(=O)c1c[nH]c2ccc(Cc3cccnc3)cc2c1=O

>  <Qualitative Label>
rule met

$$$$
>  <Molecule Smiles>
CCc1ccc2[nH]cc(C(=O)CC3CCCCC3)c(=O)c2c1

>  <Qualitative Label>
rule not met

$$$$
>  <Molecule Smiles>
CCc1ccc2[nH]cc(C(=O)Cc3ccccc3)c(=O)c2c1

>  <Qualitative Label>
rule not met

$$$$
>  <Molecule Smiles>
CCCCC(=O)c1c[nH]c2ccc(Cc3ccncc3)cc2c1=O

>  <Qualitative Label>
rule met

$$$$
>  <Molecule Smiles>
CCCCCCC(=O)c1c[nH]c2ccc(CC)cc2c1=O

>  <Qualitative Label>
rule not met

$$$$
>  <Molecule Smiles>
CCOC(=O)c1cnc2ccc(CC)cc2c1O

>  <Qualitative Label>
rule not met

$$$$

**Q:** Reported pKi at or above 9? CCCC(=O)c1c[nH]c2ccc(Cc3ccccc3)cc2c1=O
**A:** rule met

**Q:** Another: CCc1ccc2[nH]cc(C(=O)CCC(C)C)c(=O)c2c1
**A:** rule not met
